Values were extracted from patent US20090280138A1.

Task for the reader: assign each of the following binders its reported % of positive control peptide binding.
- studySystem: T1, MHC class I allele B*0702 (bound via biotin to streptavidin-coated plate)
- T1 construct: iTopia MHC class I monomer on the plate; placeholder peptide and b2M removed, then reconstituted with test peptide and fresh b2M; also called B7; HLA B7
- methodSummary: iTopia peptide binding assay
Numbers only, in %.

binder: RQLDLSHNP (also called Peptide No 73) [5T4 9 mer peptide 73 RQLDLSHNP]
valueUnits: %
% of positive control peptide binding: 4

Provide the reported % of positive control peptide binding of each entry below, same order.
1. EDERQNRSF (also called Peptide No 94) [5T4 9 mer peptide 94 EDERQNRSF]
2. MPGGCSRGP (also called Peptide No 1) [5T4 9 mer peptide 1 MPGGCSRGP]

Solution:
4
3

Exercise: Quote % of positive control peptide binding reported for VSAPSPLVE (also called Peptide No 85) [5T4 9 mer peptide 85 VSAPSPLVE] please.
Solution: 3
